Molecular target: CCR2 (Homo sapiens)
Construct: Membranes were prepared from THP-1 cells; endogenous in cells; host or cells: THP-1 cells (membrane preparation)
Sequence (P41597 1-360 isoform P41597-2): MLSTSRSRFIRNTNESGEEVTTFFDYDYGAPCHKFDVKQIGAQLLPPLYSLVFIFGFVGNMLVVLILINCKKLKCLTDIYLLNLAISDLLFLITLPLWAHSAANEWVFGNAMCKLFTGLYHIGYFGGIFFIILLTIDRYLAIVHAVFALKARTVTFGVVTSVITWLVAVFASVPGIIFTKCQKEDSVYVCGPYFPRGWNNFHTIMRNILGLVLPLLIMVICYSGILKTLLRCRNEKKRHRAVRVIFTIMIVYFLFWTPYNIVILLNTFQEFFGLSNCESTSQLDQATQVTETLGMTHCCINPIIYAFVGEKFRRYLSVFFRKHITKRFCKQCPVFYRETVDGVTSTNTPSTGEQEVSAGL
Assay: CCR2 receptor membrane binding assay ([125I]MCP-1, THP-1 cell membranes, SPA beads)
Details: @ 10 μM test compound; THP-1 membranes; read-out: CCR2 % ctrl @ 10 μM
REPORTED_PROPERTY: remaining activity at 10 µM (%)

Consider the following illustrative entries.
>  <COMPOUND>
Cc1c(NCCc2ccc(Cl)c(Cl)c2)ncnc1C(=O)N1CCC(N2CCC[C@@H](O)C2)CC1

>  <OBSERVED_MEASUREMENT>
15

$$$$
>  <COMPOUND>
CC(=O)NC1CCN(C2CCN(C(=O)c3ncnc(NCCc4ccc(Cl)c(Cl)c4)c3C)CC2)CC1

>  <OBSERVED_MEASUREMENT>
16

$$$$
>  <COMPOUND>
Cc1nc(NCc2ccc(C(C)(C)C)cc2)c(C)c(C(=O)N2CCC(N3CCC(S(=O)(=O)N(C)C)CC3)CC2)n1

>  <OBSERVED_MEASUREMENT>
35

$$$$
>  <COMPOUND>
Cc1c(NCC2Cc3ccccc3C2)ncnc1C(=O)N1CCC(N2CCC(O)CC2)CC1

>  <OBSERVED_MEASUREMENT>
7

$$$$
>  <COMPOUND>
Cc1c(Oc2ccc(C(C)(C)C)cc2)ncnc1C(=O)N1CCC(N2CCC(N(C)S(C)(=O)=O)CC2)CC1

>  <OBSERVED_MEASUREMENT>
32

$$$$

P: Cc1nc(NC2CCCC(c3ccccc3)C2)c(C)c(C(=O)N2CCC(N3CCC(NS(C)(=O)=O)CC3)CC2)n1 (stereo not shown)
Q: Cc1c(NCCOCc2ccccc2)ncnc1C(=O)N1CCC(N2CCC(O)CC2)CC1
R: CCC(C)NC(=O)C1CCN(C2CCN(C(=O)c3ncnc(NCc4ccc(C(C)(C)C)cc4)c3C)CC2)CC1 (stereo not shown)
S: CNC(=O)C1CCN(C2CCN(C(=O)c3ncnc(NCc4ccc(Cl)c(Cl)c4)c3C)CC2)CC1
// query Please give the order of these compounds when sorted by remaining activity at 10 µM, largest value leading. In your reply, arrange the labels in the requested order.
// result Q, P, S, R
(Q: 52%, P: 29%, S: 8%, R: 5%)

1: Cc1c(NCc2ccc(Cl)cc2)ncnc1C(=O)N1CCC(N2CCCCC2)CC1
2: Cc1c(NCCc2ccc(Cl)c(Cl)c2)ncnc1C(=O)N1CCC(N2CCC(N(C)S(C)(=O)=O)CC2)CC1
3: Cc1c(NCCc2ccc(Cl)cc2)ncnc1C(=O)N1CCC(N2CCC(O)CC2)CC1
// query Reorder the items by remaining activity at 10 µM, least to greatest. In your reply, arrange the labels in the requested order.
// result 2, 3, 1

Origin of values: patent US8835440B2
